Source: patent US11192867B2

Tested on: Phakopsora pachyrhizi
Assay: Fungicidal activity against Phakopsora pachyrhizi / soybean / leaf disc preventative (Asian soybean rust)
Format: in vivo
Settings: foliar, 200 ppm in the applied formulation, soybean leaf disks, vs untreated control, read-out: disease control
Property measured: pest or weed control at 200 ppm

Guide cases for pest or weed control at 200 ppm, answers given:
| Compound | pest or weed control at 200 ppm |
| --- | --- |
| CC(CNC(=O)c1ccc(-c2noc(C(F)(F)F)n2)cc1)=NOC(C)C | ≥ 80% |
| CCCCON=CC(C)NC(=O)c1ccc(-c2noc(C(F)(F)F)n2)cc1 (centres unmarked) | ≥ 80% |
| COc1ccccc1CON=CC(C)NC(=O)c1ccc(-c2noc(C(F)(F)F)n2)cc1 (centres unmarked) | ≥ 80% |
| O=C(NCC=NOCc1ccc(F)cc1Cl)c1ccc(-c2noc(C(F)(F)F)n2)cc1 | ≥ 80% |
| CO/N=C(/C)CNC(=O)c1ccc(-c2noc(C(F)(F)F)n2)cc1 | ≥ 80% |

In: GET /values?readout=pest or weed control at 200 ppm&item= CC(C=NOCC1CC1)NC(=O)c1ccc(-c2noc(C(F)(F)F)n2)cc1 (centres unmarked)
Out: ≥ 80%

In: Param item = C#CCO/N=C/CCNC(=O)c1ccc(-c2noc(C(F)(F)F)n2)cc1 ; retrieve measured pest or weed control at 200 ppm.
Out: ≥ 80%

In: # pest or weed control at 200 ppm lookup, item O=C(NCC=NOC/C=C\Cl)c1ccc(-c2noc(C(F)(F)F)n2)cc1
Out: ≥ 80%
